- TARGET: mouse TLR7 (Mus musculus)
- Sequence (P58681 27-1050): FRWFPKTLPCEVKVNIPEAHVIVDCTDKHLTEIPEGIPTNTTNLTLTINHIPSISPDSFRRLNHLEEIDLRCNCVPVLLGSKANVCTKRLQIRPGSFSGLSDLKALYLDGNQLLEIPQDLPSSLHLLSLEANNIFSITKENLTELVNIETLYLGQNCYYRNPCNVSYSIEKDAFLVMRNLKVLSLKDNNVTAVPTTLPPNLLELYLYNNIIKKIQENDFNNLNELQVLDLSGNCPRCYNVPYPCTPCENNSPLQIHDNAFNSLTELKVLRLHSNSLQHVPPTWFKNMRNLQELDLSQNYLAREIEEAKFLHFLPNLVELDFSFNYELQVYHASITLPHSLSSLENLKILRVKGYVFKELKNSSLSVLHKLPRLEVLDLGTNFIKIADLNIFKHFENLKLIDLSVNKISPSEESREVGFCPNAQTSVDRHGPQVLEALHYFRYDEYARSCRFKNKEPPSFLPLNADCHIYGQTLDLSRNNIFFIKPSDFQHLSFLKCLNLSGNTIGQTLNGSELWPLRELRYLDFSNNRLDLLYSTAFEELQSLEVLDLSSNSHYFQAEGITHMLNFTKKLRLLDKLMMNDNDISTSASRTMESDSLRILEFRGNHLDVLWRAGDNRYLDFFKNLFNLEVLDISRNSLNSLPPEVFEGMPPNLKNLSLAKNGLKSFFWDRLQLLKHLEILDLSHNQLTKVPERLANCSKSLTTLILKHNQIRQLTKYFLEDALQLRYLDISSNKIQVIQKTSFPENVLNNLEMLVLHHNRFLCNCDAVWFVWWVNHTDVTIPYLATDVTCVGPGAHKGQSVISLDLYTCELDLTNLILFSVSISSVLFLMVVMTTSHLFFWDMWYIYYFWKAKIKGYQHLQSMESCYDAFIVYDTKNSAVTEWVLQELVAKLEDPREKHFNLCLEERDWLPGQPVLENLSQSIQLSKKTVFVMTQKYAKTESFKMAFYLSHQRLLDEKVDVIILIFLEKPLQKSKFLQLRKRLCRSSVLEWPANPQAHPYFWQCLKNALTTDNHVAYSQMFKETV
- RUN DESCRIPTION: Short-term in vivo (STIV) assay: oral dosing, R848 s.c., plasma IL-6
- Set-up: female BALB/c mice (Jackson Labs, Bar Harbor, Me.) were dosed by oral gavage; tissue Jackson Labs; host or cells: living female BALB/c mice; plasma IL-6 after s.c. R848
- COND: 19 h; 100 mg/kg
Provide the recorded % Suppression vs. Vehicle for the entries that follow.
Give bare numbers, in %.

MOLECULE | ENDPOINT LABEL | SCALE UNIT | ASSAY RESULT
CC1CN(c2ccc(C#N)c3ncccc23)CC(CN2CCC(NC(=O)C(C)C)CC2)O1 (stereo not shown) | % Suppression vs. Vehicle | % | 52
COc1cccnc1NC[C@H]1CN(c2ccc(C#N)c3ncccc23)C[C@@H](C)O1 | % Suppression vs. Vehicle | % | 5
C[C@@H]1CN(c2ccc(C#N)c3ncccc23)C[C@H](CN2CCC(N3CCN(C)CC3)CC2)O1 | % Suppression vs. Vehicle | % | 88

Record C[C@@H]1CN(c2ccc(C#N)c3ncccc23)C[C@H](CN2CCCN(C)CC2)O1 , field % Suppression vs. Vehicle: 96
